Tested on: colorectal cancer cell line (HCT-15)
assay.text: Cancer proliferation inhibitory activity (SRB, GI50), HCT-15
Assay type: cell-based
assay.context: Homo sapiens, 48 hours
quantity.name: GI50 (nM)

| molecule | experimental.value |
| --- | --- |
| COc1ccc([S+]([O-])C/C=C/SSCc2ccc(Cl)cc2)cc1 (stereo not drawn) [Example 35] | 880 |
| [O-][S+](C/C=C/SSCc1ccc(Cl)c(Cl)c1)c1ccccc1 (stereo not drawn) [Example 13] | 2780 |
| [O-][S+](C/C=C\SSCc1ccc(Cl)cc1)c1ccccc1 (stereo not drawn) [Example 12] | 5480 |
| COc1ccc([S+]([O-])C/C=C/SSCc2ccc(F)cc2)cc1 (stereo not drawn) [Example 33] | 250 |
| CCCSS/C=C/C[S+]([O-])c1ccc(OC)cc1 (stereo not drawn) [Example 29] | 1480 |
| CCCSS/C=C\C[S+]([O-])c1cccc(OC)c1 (stereo not drawn) [Example 18] | 1340 |
| COc1ccc([S+]([O-])C/C=C/SSCc2ccc(Cl)c(Cl)c2)cc1 (stereo not drawn) [Example 37] | 3320 |
| COc1cccc([S+]([O-])C/C=C\SSCc2ccc(Cl)c(Cl)c2)c1 (stereo not drawn) [Example 26] | 7250 |
| C=CCSS/C=C\C[S+]([O-])c1ccc(OC)cc1 (stereo not drawn) [Example 28] | 3940 |

----------
Catalogue of compounds with associated GI50
Tested on: colorectal cancer cell line (HCT-15)
assay.text: Cancer proliferation inhibitory activity (SRB, GI50), HCT-15
Format: cell-based
assay.context: Homo sapiens, 48 hours
quantity.name: GI50 (µM)

| compound | value.modifier | experimental.value |
| --- | --- | --- |
| CCCSS/C=C/C[S+]([O-])Cc1ccccc1 (stereo not drawn) [Comparative Example 6, reference compound] | = | 3.03 |
| COc1ccc([S+]([O-])C/C=C\SSCc2ccccc2)cc1 (stereo not drawn) | = | 1.55 |
| C=CCSS/C=C/C[S+]([O-])c1ccc(OC)cc1 (stereo not drawn) | = | 6.61 |
| [O-][S+](C/C=C/SSCc1ccc(F)cc1)Cc1ccccc1 (stereo not drawn) [Comparative Example 8, reference compound] | = | 2.27 |
| CCCSS/C=C/C[S+]([O-])c1ccccc1 (stereo not drawn) | = | 2.64 |
| C=CCSS/C=C/C[S+]([O-])Cc1ccccc1 (stereo not drawn) [Comparative Example 5, reference compound] | = | 9.1 |
| COc1cccc([S+]([O-])C/C=C\SSCc2ccc(F)cc2)c1 (stereo not drawn) | = | 3.01 |
| [O-][S+](C/C=C/SSCc1ccc(Cl)cc1)c1ccccc1 (stereo not drawn) | = | 1.67 |
| COc1ccc(CSS/C=C\C[S+]([O-])c2ccccc2)cc1 (stereo not drawn) | = | 2.33 |
| [O-][S+](C/C=C\SSCc1ccccc1)c1ccccc1 (stereo not drawn) | = | 6.48 |
| COc1ccc([S+]([O-])C/C=C\SSCc2ccc(Cl)c(Cl)c2)cc1 (stereo not drawn) | = | 7.18 |
| CCCSS/C=C\C[S+]([O-])c1ccc(OC)cc1 (stereo not drawn) | = | 2.43 |
| COc1cccc([S+]([O-])C/C=C/SSCc2ccc(F)cc2)c1 (stereo not drawn) | = | 1.75 |
| [O-][S+](C/C=C\SSCc1ccc(Cl)c(Cl)c1)c1ccccc1 (stereo not drawn) | > | 10 |
| COc1ccc([S+]([O-])C/C=C\SSCc2ccc(Cl)cc2)cc1 (stereo not drawn) | = | 1.62 |
| COc1cccc([S+]([O-])C/C=C/SSCc2ccc(Cl)cc2)c1 (stereo not drawn) | = | 4.37 |
| C=CCSS/C=C\C[S+]([O-])Cc1ccccc1 (stereo not drawn) [Comparative Example 4, reference compound] | = | 5.93 |
| C=CC[S+]([O-])C/C=C\SSCc1ccccc1 (stereo not drawn) [Comparative Example 3, reference compound] | = | 4.96 |

----------
Tested on: prostate cancer cell line (PC-3)
assay.text: Cancer proliferation inhibitory activity (SRB, GI50), PC-3
Type: cell-based
assay.context: Homo sapiens, 48 hours
# GI50 per record follows
quantity.name: GI50

| compound | experimental.value |
| --- | --- |
| C=CCSS/C=C\C[S+]([O-])CC=C (stereo not drawn) [Comparative Example 2, Z-Ajoene, reference compound] | > 10 µM |
| CCCSS/C=C/C[S+]([O-])c1ccccc1 (stereo not drawn) | 4.74 µM |
| C=CCSS/C=C\C[S+]([O-])Cc1ccccc1 (stereo not drawn) [Comparative Example 4, reference compound] | 3.28 µM |
| [O-][S+](C/C=C/SSCc1ccc(Cl)cc1)c1ccccc1 (stereo not drawn) | 1.3 µM |
| [O-][S+](C/C=C/SSCc1ccccc1)Cc1ccccc1 (stereo not drawn) [Comparative Example 7, reference compound] | 3.88 µM |
| COc1cccc([S+]([O-])C/C=C/SSCc2ccc(F)cc2)c1 (stereo not drawn) | 1.97 µM |
| COc1cccc([S+]([O-])C/C=C\SSCc2ccccc2)c1 (stereo not drawn) | 2.96 µM |
| COc1ccc([S+]([O-])C/C=C\SSCc2ccc(Cl)cc2)cc1 (stereo not drawn) | 2.28 µM |
| CCCSS/C=C\C[S+]([O-])c1ccc(OC)cc1 (stereo not drawn) | 3.02 µM |
| COc1ccc(CSS/C=C\C[S+]([O-])c2ccccc2)cc1 (stereo not drawn) | 4.24 µM |
| COc1ccc([S+]([O-])C/C=C/SSCc2ccc(Cl)cc2)cc1 (stereo not drawn) | 1.05 µM |
| [O-][S+](C/C=C/SSCc1ccc(F)cc1)Cc1ccccc1 (stereo not drawn) [Comparative Example 8, reference compound] | 2.04 µM |
| [O-][S+](C/C=C/SSCc1ccc(Cl)c(Cl)c1)c1ccccc1 (stereo not drawn) | 2.3 µM |
| COc1ccc([S+]([O-])C/C=C\SSCc2ccc(Cl)c(Cl)c2)cc1 (stereo not drawn) | 4.36 µM |
| [O-][S+](C/C=C\SSCc1ccc(Cl)cc1)c1ccccc1 (stereo not drawn) | 4.99 µM |
| CCCSS/C=C/C[S+]([O-])c1cccc(OC)c1 (stereo not drawn) | 1.99 µM |
| COc1ccc([S+]([O-])C/C=C/SSCc2ccc(F)cc2)cc1 (stereo not drawn) | 0.29 µM |
| [O-][S+](C/C=C\SSCc1ccccc1)c1ccccc1 (stereo not drawn) | 5.35 µM |

----------
GI50 values, listed per item
Tested on: prostate cancer cell line (PC-3)
assay.text: Cancer proliferation inhibitory activity (SRB, GI50), PC-3
Format: cell-based
assay.context: Homo sapiens, 48 hours
Description: […] At this time, the cancer cell lines (renal cancer cell line (ACHN), breast cancer cell line (MDA-MB-231), colorectal cancer cell line (HCT-15), prostate cancer cell line (PC-3), gastric cancer cell line (NUGC-3) and lung cancer cell line (NCl-H23)) above were purchased from American Type Culture Collection (Manassas, Va., USA). […] Then, OD540 was measured with VersaMax microplate reader (Molecular devices, Sunnyvale, Calif., USA). […]
quantity.name: GI50 (µM)

| molecule | target.or.system | experimental.value |
| --- | --- | --- |
| CCCSS/C=C\C[S+]([O-])c1cccc(OC)c1 (stereo not shown) | prostate cancer cell line (PC-3) | 1.92 |
| C=CCSS/C=C/C[S+]([O-])Cc1ccccc1 (stereo not shown) [Comparative Example 5, reference compound] | prostate cancer cell line (PC-3) | 6.85 |
| [O-][S+](C/C=C/SSCc1ccc(F)cc1)c1ccccc1 (stereo not shown) | prostate cancer cell line (PC-3) | 3.89 |
| COc1cccc([S+]([O-])C/C=C/SSCc2ccc(Cl)cc2)c1 (stereo not shown) | prostate cancer cell line (PC-3) | 3.76 |
| C=CCSS/C=C/C[S+]([O-])c1ccc(OC)cc1 (stereo not shown) | prostate cancer cell line (PC-3) | 4.38 |
| C=CCSS/C=C\C[S+]([O-])c1ccc(OC)cc1 (stereo not shown) | prostate cancer cell line (PC-3) | 4.47 |
| C=CC[S+]([O-])C/C=C\SSCc1ccccc1 (stereo not shown) [Comparative Example 3, reference compound] | prostate cancer cell line (PC-3) | 2.31 |
| COc1ccc(CSS/C=C/C[S+]([O-])c2ccccc2)cc1 (stereo not shown) | prostate cancer cell line (PC-3) | 2.72 |
| COc1ccc([S+]([O-])C/C=C\SSCc2ccccc2)cc1 (stereo not shown) | prostate cancer cell line (PC-3) | 3.19 |
| COc1ccc([S+]([O-])C/C=C/SSCc2ccc(Cl)c(Cl)c2)cc1 (stereo not shown) | prostate cancer cell line (PC-3) | 5.17 |
| COc1cccc([S+]([O-])C/C=C\SSCc2ccc(F)cc2)c1 (stereo not shown) | prostate cancer cell line (PC-3) | 3.04 |
| COc1cccc([S+]([O-])C/C=C\SSCc2ccc(Cl)cc2)c1 (stereo not shown) | prostate cancer cell line (PC-3) | 5.97 |
| C=CCSS/C=C/C[S+]([O-])c1cccc(OC)c1 (stereo not shown) | prostate cancer cell line (PC-3) | 3.02 |
| [O-][S+](C/C=C\SSCc1ccc(Cl)c(Cl)c1)c1ccccc1 (stereo not shown) | prostate cancer cell line (PC-3) | 4.55 |
| COc1cccc([S+]([O-])C/C=C/SSCc2ccccc2)c1 (stereo not shown) | prostate cancer cell line (PC-3) | 1.44 |
| [O-][S+](C/C=C/SSCc1ccccc1)c1ccccc1 (stereo not shown) | prostate cancer cell line (PC-3) | 3.19 |
| COc1ccc([S+]([O-])C/C=C\SSCc2ccc(F)cc2)cc1 (stereo not shown) | prostate cancer cell line (PC-3) | 1.35 |
| COc1cccc([S+]([O-])C/C=C\SSCc2ccc(Cl)c(Cl)c2)c1 (stereo not shown) | prostate cancer cell line (PC-3) | 6.67 |
| CCCSS/C=C/C[S+]([O-])c1ccc(OC)cc1 (stereo not shown) | prostate cancer cell line (PC-3) | 2.41 |
